# testTarget: human DP2 receptor (Homo sapiens, UniProt Q9Y5Y4)
# Sequence (Q9Y5Y4 1-395): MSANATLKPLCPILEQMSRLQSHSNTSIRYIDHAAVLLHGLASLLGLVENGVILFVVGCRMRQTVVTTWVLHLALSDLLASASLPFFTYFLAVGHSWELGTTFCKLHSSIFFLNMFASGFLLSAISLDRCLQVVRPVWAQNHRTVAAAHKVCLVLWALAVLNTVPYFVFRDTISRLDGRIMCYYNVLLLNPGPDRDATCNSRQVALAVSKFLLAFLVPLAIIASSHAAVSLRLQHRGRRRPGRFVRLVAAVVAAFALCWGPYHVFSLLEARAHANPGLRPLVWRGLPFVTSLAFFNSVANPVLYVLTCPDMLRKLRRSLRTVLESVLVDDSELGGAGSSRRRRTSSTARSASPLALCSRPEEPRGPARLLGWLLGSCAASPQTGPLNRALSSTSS
# procedureDetails: DP2/CRTH2 binding assay ([3H]PGD2 radioligand)
# conditionInfo: membranes of HEK293 cells expressing recombinant human DP2, 1 nM [3H]PGD2; read-out: hDP2
Attribute: IC50

compound | testTarget | IC50
CCc1ccc(CC(=O)O)cc1Oc1ccc(NC(=O)C(C)(C)C)cc1CSCC(F)(F)F | human DP2 receptor (Homo sapiens, UniProt Q9Y5Y4) | < 300 nM
COc1ccc(CC(=O)O)cc1Oc1ccc(NC(=O)CC(C)(C)C)cc1CSC(C)(C)C | human DP2 receptor (Homo sapiens, UniProt Q9Y5Y4) | < 300 nM
COc1ccc(CC(=O)O)cc1Oc1ccc(NC(=O)CC(C)(C)C)cc1CSCC(F)(F)F | human DP2 receptor (Homo sapiens, UniProt Q9Y5Y4) | < 300 nM

Next:
Input: Query: IC50; subject: COc1ccc(CC(=O)O)cc1Oc1ccc(C(=O)NCC(=O)c2ccccc2)cc1CSC(C)(C)C
Output: < 300 nM

* * *

# testTarget: human DP1 receptor (Homo sapiens, UniProt Q13258)
# Sequence (Q13258 whole entry): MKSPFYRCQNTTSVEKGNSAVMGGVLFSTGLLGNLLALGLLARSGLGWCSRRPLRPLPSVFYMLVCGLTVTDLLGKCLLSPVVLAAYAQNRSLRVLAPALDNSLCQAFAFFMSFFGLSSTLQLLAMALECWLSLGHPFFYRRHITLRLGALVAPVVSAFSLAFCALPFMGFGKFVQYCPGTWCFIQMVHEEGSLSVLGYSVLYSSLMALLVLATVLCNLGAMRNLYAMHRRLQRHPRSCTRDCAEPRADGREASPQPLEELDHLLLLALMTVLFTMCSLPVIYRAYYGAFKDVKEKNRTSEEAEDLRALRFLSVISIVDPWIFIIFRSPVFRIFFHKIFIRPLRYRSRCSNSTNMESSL
pIC50: −log10 of the molar value.
measuredEndpoint: pIC50

molecule | pIC50
COc1ccc(CC(=O)O)cc1Oc1ccc(NC(=O)c2cc(F)cc(F)c2)cc1CSC(C)(C)C | > 6.52
COc1ccc(CC(=O)O)cc1Oc1ccc(NC(=O)C(C)(C)C)cc1C[S+]([O-])C(C)(C)C (stereo not shown) | > 6.52
CC(C)(C)C(=O)Nc1ccc(Oc2cc(CC(=O)O)cc(C(F)(F)F)c2)c(CSCC(F)(F)F)c1 | < 6.00

Input: Query: pIC50; subject: CC(C)C(=O)Nc1ccc(Oc2cc(CC(=O)O)ccc2Cl)c(CSC(C)(C)C)c1
Output: > 6.52

* * *

Attribute: IC50
# testTarget: human DP2 receptor (Homo sapiens, UniProt Q9Y5Y4)
# procedureDetails: DP2/CRTH2 binding assay ([3H]PGD2 radioligand)
# conditionInfo: membranes of HEK293 cells expressing recombinant human DP2, 1 nM [3H]PGD2; read-out: hDP2

Input: Query: IC50; subject: C=Cc1ccc(CC(=O)O)cc1Oc1ccc(NC(=O)C(C)(C)C)cc1CSCC(F)(F)F [Compound 55]
Output: < 300 nM

Input: Query: IC50; subject: COc1ccc(CC(=O)O)cc1Oc1ccc(NC(=O)c2ccc(Cl)cc2)cc1CSc1nnc(C)s1 [Compound 19]
Output: < 300 nM

Input: Query: IC50; subject: O=C(O)CCn1c2c(c3ccccc31)C[C@H](NS(=O)(=O)c1ccc(F)cc1)CC2 [Ramatroban, reference compound]
Output: 300 to 1000 nM

Input: Query: IC50; subject: COc1ccc(CC(=O)O)cc1Oc1ccc(NC(=O)c2ccc(Cl)cc2)cc1CSCC(F)(F)F [Compound 1]
Output: < 300 nM

* * *

Attribute: pIC50
# testTarget: UniProtKB Q9Y5Y4
# procedureDetails: DP2/CRTH2 binding assay ([3H]PGD2 radioligand)
# conditionInfo: membranes of HEK293 cells expressing recombinant human DP2, 1 nM [3H]PGD2; read-out: hDP2
# Method: The ability of a compound to bind to the human DP2 receptor is assessed via a radioligand binding assay using [^3H]PGD2. […] Scintillant is then added to the plates and the radioactivity retained on the filters is determined on a Packard TopCount (Perkin Elmer). Specific binding is determined as total radioactive binding minus non-specific binding in the presence of 10 μM PGD2. IC50s were determined using GraphPad prism analysis of drug titration curves.
pIC50: −log10 of the molar value.

Input: Query: pIC50; subject: COc1ccc(CC(=O)O)cc1Oc1ccc(NC(=O)C(C)(C)C)cc1CSC(C)(C)C
Output: > 6.52

Input: Query: pIC50; subject: COc1ccc(CC(=O)O)cc1Oc1ccc(NC(=O)c2cc(Cl)cc(Cl)c2)cc1CSC(C)(C)C
Output: > 6.52
